Measured values drawn from patent US4593019A for this set.

Molecular target: A2 receptor (Rattus norvegicus, UniProt P30543)
Sequence (P30543 whole entry): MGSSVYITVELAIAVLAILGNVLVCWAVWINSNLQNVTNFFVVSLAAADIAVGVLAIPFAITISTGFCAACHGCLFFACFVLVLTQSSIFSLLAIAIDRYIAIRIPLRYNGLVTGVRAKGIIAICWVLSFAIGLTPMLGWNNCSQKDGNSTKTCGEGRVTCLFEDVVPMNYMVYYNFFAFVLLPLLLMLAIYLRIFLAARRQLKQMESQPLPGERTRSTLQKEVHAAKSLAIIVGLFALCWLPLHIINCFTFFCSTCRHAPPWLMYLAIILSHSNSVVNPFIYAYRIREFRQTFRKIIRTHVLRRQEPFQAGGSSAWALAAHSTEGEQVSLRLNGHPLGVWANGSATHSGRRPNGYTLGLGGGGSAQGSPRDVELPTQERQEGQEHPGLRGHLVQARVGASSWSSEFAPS
measurement name: IC50 (nM)
One number for each entry, in nM.

Query: GET /values?readout=IC50&item= OC[C@H]1O[C@@H](n2cnc3c(NCC4c5ccccc5Oc5ccccc54)ncnc32)[C@H](O)[C@@H]1O [Example 4, N^6-[Xanthene-9-methylamino]adenosine]
Response: 65
